assay: in vitro
Attribute Measured: CC50

compound="c1ccc2[nH]c(-c3nc4ccccc4[nH]3)nc2c1 [Compound 1, 1H, 1′H-[2,2′]Bibenzoimidazolyl]" attribute_measured=CC50 result="> 25 µM"

====

tested on: LCMV Armstrong strain (Arm53b); assay: organism not typed; assay type: cell-based; conditions: Vero, read-out: Activity (EC50 class)
pEC50: −log10 of the molar value.
# pEC50 per record follows
Attribute Measured: pEC50

molecule="c1cnc2nc(-c3nc4ncccc4[nH]3)[nH]c2c1 [Compound 20, 1H,1′H-[2,2′]Bi[imidazo[4,5 b]pyridinyl]]" result="> 6.00"
molecule=Cc1cc2nc(-c3nc4cc(C)c(C)cc4[nH]3)[nH]c2cc1C result="5.00 to 6.00"
molecule=COC(=O)c1ccc2[nH]c(-c3nc4cc(C(=O)OC)ccc4[nH]3)nc2c1 result="< 4.60"
molecule=Cc1ccc2[nH]c(-c3nc4cc(C)ccc4[nH]3)nc2c1 result="< 4.60"
molecule=Fc1ccc2[nH]c(-c3nc4cc(F)ccc4[nH]3)nc2c1 result="> 6.00"
molecule="c1ccc2[nH]c(-c3nc4ccccc4[nH]3)nc2c1 [Compound 1, 1H, 1′H-[2,2′]Bibenzoimidazolyl]" result="> 6.00"
molecule="c1cc2nc(-c3nc4ccncc4[nH]3)[nH]c2cn1 [Compound 21, 3H,3′H-[2,2′]Bi[imidazo[4,5 c]pyridinyl]]" result="4.60 to 5.00"
molecule=Cn1c(-c2nc3ccccc3n2C)nc2ccccc21 result="< 4.60"

====

# pEC50 per record follows
tested on: LCMV Armstrong strain (Arm53b); assay: organism not typed; assay type: cell-based; conditions: Vero, read-out: Activity (EC50 class)
pEC50: −log10 of the molar value.
Attribute Measured: pEC50

chemical_smiles=Fc1cc2nc(-c3nc4cc(F)c(F)cc4[nH]3)[nH]c2cc1F result="> 6.00"
chemical_smiles=COC(=O)c1cccc2[nH]c(-c3nc4c(C(=O)OC)cccc4[nH]3)nc12 result="< 4.60"
chemical_smiles=Fc1cc(F)c2nc(-c3nc4c(F)cc(F)cc4[nH]3)[nH]c2c1 result="> 6.00"
chemical_smiles=O=[N+]([O-])c1ccc2nc(-c3nc4ccc([N+](=O)[O-])cc4[nH]3)[nH]c2c1 result="< 4.60"

====

tested on: LCMV Armstrong strain (Arm53b); assay: organism not typed; assay type: cell-based; conditions: Vero, read-out: Activity (EC50 class)
pEC50: −log10 of the molar value.
Attribute Measured: pEC50

chemical_smiles=COc1ccc2[nH]c(-c3nc4cc(OC)ccc4[nH]3)nc2c1 measured_on="LCMV Armstrong strain (Arm53b)" result="4.60 to 5.00"
chemical_smiles=Clc1ccc2[nH]c(-c3nc4cc(Cl)ccc4[nH]3)nc2c1 measured_on="LCMV Armstrong strain (Arm53b)" result="5.00 to 6.00"
chemical_smiles=Cc1cccc2[nH]c(-c3nc4c(C)cccc4[nH]3)nc12 measured_on="LCMV Armstrong strain (Arm53b)" result="< 4.60"

====

# EC50 per record follows
tested on: LCMV Armstrong strain (Arm53b); assay: organism not typed; type: cell-based; conditions: Vero, read-out: Activity (EC50 class)
Attribute Measured: EC50

chemical_smiles=Brc1ccc2[nH]c(-c3nc4cc(Br)ccc4[nH]3)nc2c1 result="1 to 10 µM"
chemical_smiles=c1ccc(-c2cccc3[nH]c(-c4nc5c(-c6ccccc6)cccc5[nH]4)nc23)cc1 result="> 25 µM"
chemical_smiles=COc1cccc2[nH]c(-c3nc4c(OC)cccc4[nH]3)nc12 result="> 25 µM"
chemical_smiles=Fc1ccc2[nH]c(-c3nc4c(F)c(F)ccc4[nH]3)nc2c1F result="< 1 µM"
chemical_smiles=Fc1cccc2[nH]c(-c3nc4c(F)cccc4[nH]3)nc12 result="< 1 µM"
